Where do these numbers come from? They come from ChEMBL document CHEMBL3433997.

- Experimental System: Solute carrier family 2, facilitated glucose transporter member 1 (Homo sapiens)
- Experiment: ST_JUDE_LEISH: Cytotoxicity at 2uM final concentration against transgenic Leishmania Mexicana promastigotes LmGLUT1 that are glucose transport deficient and complemented with the human glucose transporter GLUT1. Activity is measured by DNA content using SYBR green in vitro
- Assay type: functional
Observable: inhibition

The recorded inhibition for entry O=S(=O)(Nc1cccc(CCN2CCC(N3CCCCC3)CC2)c1)c1ccc(-c2ccccc2)cc1 equals 3.35%

Looking up Brc1cc(CNCCCNc2nc3ccccc3[nH]2)sc1Br , I found its inhibition recorded as 6.22%

inhibition in this record for Cn1cncc1CCCN(Cc1ccc(-c2ccc(C(F)(F)F)cc2)cc1)C(=O)Cn1c(CCc2cccc(F)c2F)cc(=O)c2cccnc21 : 2.28%

Entry CN1CCN(c2nc(NCCNc3ccc([N+](=O)[O-])cc3)c3ccccc3n2)CC1 — recorded inhibition = 0.92%

// inhibition lookup, compound = COc1ccc(N2CCc3c(-c4cccc5cnccc45)cc(C)nc32)c(C)c1 , result: -0.79%

Sample Cc1cccc2nc(-c3cccc(-c4cccc(C(=O)N5CCCCC5CN5CCC(O)C5)c4)c3)[nH]c12 (centres undefined) ; inhibition observed: 0.56%

# inhibition of CCC[C@@H]([C@@H](CC1CCCCC1)C(=O)N[C@H](C(=O)Nc1ccccn1)[C@H](C)CC)N(O)C=O = 3.49%

Note to self: inhibition recorded for O=C(Nc1cccc(Oc2ccccc2)c1)N[C@H]1CCN(Cc2ccc(OCCCN3CCCCC3)cc2)C1 was 3.58%

Next:
The recorded inhibition for entry COc1cc2c(cc1S(=O)(=O)c1ccc(COc3ccc(C(F)(F)F)cc3)cc1)CNCC2 equals -1.59%

====

- Experimental System: Hexose transporter 1 (Plasmodium falciparum)
- Experiment: ST_JUDE_LEISH: Cytotoxicity at 2uM final concentration against transgenic Leishmania Mexicana promastigotes LmPfHT that are glucose transport deficient and complemented with the Plasmodium falciparum hexose transporter. Activity is measured by DNA content using SYBR green in vitro
- Assay type: functional
Observable: inhibition (%)
Number only, in %; omit the unit.

Guide cases for inhibition, answers given:
Given item COc1cc2nc(N(C)C)nc(Nc3ccc4c(cnn4Cc4ccccc4)c3)c2cc1OC , the value recorded as its inhibition is -0.17

Noted for CC(C)C[C@@H](C(=O)N[C@@H](CCCCNC(=O)OCc1ccccc1)C(=O)Nc1nccs1)[C@H](C)N(O)C=O : its inhibition reads 3.38

inhibition reading for C=Cc1ccccc1C1(O)CCN(CCCCNC(=O)c2ccc(-c3ccc(C#N)cc3)cc2)CC1 : 1.76

Note to self: inhibition recorded for CC(C)(C)C(=O)N1CCN(c2ccc([N+](=O)[O-])c(NC3CC3)c2)CC1 was 2.58

Record CCCNC(=O)Nc1ccc(N(C)c2ccnc(NC3CC3)n2)cc1 . Reported inhibition: 5.59

The value of inhibition measured for the compound O=c1cc(NCCCCNCc2cccc(Br)c2)[nH]c2ccccc12 turned out to be 5.07

New cases:
For reference, reported inhibition for c1ccc(Oc2ccc(Nc3nc(NCCc4c[nH]cn4)nc(NC4CCCC4)n3)cc2)cc1 stands at 5.86

Value of inhibition reported for the compound COc1ccccc1C1CCN(Cc2csc(NC(=O)c3ccc(-c4ccc(C(F)(F)F)cc4)cc3)n2)CC1 is 6.58

The compound CC(C)CCN(Cc1cncn1Cc1cccc(Cl)c1)C(=O)c1cncc(-c2ccccc2)c1 showed inhibition equal to 6

compound CC(=O)N(C)c1cccc(C(=O)Nc2cccc(-c3cccc(-c4nc5cc(C(F)(F)F)ccc5[nH]4)c3)c2)c1 , inhibition observed: 12

// inhibition lookup, compound = c1ccc2c(NCCOCCNc3c4ccccc4nc4ccccc34)c3ccccc3nc2c1 , result: 2.67

====

- Experimental System: Hexose transporter 1 (Plasmodium falciparum)
- Experiment: ST_JUDE_LEISH: Cytotoxicity at 2uM final concentration against transgenic Leishmania Mexicana promastigotes LmPfHT that are glucose transport deficient and complemented with the Plasmodium falciparum hexose transporter. Activity is measured by DNA content using SYBR green in vitro
- Format: functional
Observable: inhibition (%)
The reply should be a number in %, with the unit left off.

Short answer for CC(C)N1CCN(C(CN2CCN(CCCOc3ccc4nonc4c3)CC2)c2ccc(F)cc2)CC1 (stereo not given) : inhibition was -1.18

Continuing:
Entry CN1CCCN(c2ccnc3cc4c(cc23)N(C(=O)c2ccc(Cl)c(Cl)c2)CC4)CC1 ; inhibition = 1.89

Please fill in: inhibition reported for CC(C)(C(=O)Nc1ccc(N2CCC3(CCCN(CC4CC4)C3)CC2)c(Cl)c1)c1cccc(C(F)(F)F)c1 = -0.12

inhibition recorded for this molecule, COc1ccc2nccc([C@@H](O)CN3CCC(NCCc4c[nH]c5ccccc45)CC3)c2c1 , is 11

# inhibition (molecule: O=C(Cc1ccccc1)NC(c1ccc(Cl)cc1)c1ccc2cccnc2c1O (stereo not given) ) is 4.47

====

- Experimental System: Solute carrier family 2, facilitated glucose transporter member 1 (Homo sapiens) (UniProt P11166)
- Sequence (P11166 whole entry): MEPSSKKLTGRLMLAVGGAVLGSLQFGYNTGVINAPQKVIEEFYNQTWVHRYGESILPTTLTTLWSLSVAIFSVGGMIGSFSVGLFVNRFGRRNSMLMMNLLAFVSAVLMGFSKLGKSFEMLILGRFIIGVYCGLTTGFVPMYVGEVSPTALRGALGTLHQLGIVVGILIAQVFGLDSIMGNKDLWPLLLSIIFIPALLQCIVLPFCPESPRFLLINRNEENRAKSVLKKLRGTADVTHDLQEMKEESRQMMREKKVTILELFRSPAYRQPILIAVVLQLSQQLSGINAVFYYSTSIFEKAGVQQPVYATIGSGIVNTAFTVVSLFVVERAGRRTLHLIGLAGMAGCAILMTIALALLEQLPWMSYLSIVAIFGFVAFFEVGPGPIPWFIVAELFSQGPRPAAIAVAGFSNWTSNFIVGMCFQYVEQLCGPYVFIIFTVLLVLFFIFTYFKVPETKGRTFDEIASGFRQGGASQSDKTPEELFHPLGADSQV
- Experiment: ST_JUDE_LEISH: Cytotoxicity at 2uM final concentration against transgenic Leishmania Mexicana promastigotes LmGLUT1 that are glucose transport deficient and complemented with the human glucose transporter GLUT1. Activity is measured by DNA content using SYBR green in vitro
- Format: functional
Entries and their inhibition
Write down the numeric answer in % and omit the unit.

O=C(CC(=O)C(F)(F)F)c1ccccc1[N+](=O)[O-] yielded inhibition of 0.17

O=[N+]([O-])c1cccc(CNCC2CCN(CCc3ccccc3)CC2)c1 has a reported inhibition of 2.35

Consider CCN1CCCC(CNC(=O)/C(=C/C=C/c2cc3cc(Cl)c(Cl)cc3[nH]2)OC)C1 (stereo not given) . Its measured inhibition is -0.41

Note to self: inhibition recorded for O=C(Nc1ccc(-c2nc3ccccc3[nH]2)cc1)C1CCN(Cc2cccc(F)c2F)CC1 was 24.2

Form: molecule = COc1ccc(Cn2c(SCc3ccc(C)cc3)nc3cc(OC)c(OC)cc3c2=N)cc1Cl ; inhibition = -0.1

More entries:
# inhibition (molecule: Cc1ccc(NC(=O)c2ccc3ncccc3c2)cc1OC1CCN(C(C)C)C1 (stereo not given) ) is 8.85

# inhibition (molecule: Fc1ccc2[nH]ccc(=NN=CC=Cc3ccccc3)c2c1 ) is 1.52

Per the record, COc1cc(C2C(Oc3ccccc3)C(=O)N2Cc2ccc(F)cc2)cc(OC)c1OC (stereo not given) has inhibition of 3.73

Recorded result, COc1ccc(CNc2nc(NCc3ccccc3)c3cc(OC)c(OC)cc3n2)cc1OC , inhibition: 4.35

Input CC(C)Oc1ccc(CCCON2C(=N)N=C(N)NC2(C)C)cc1 . Output inhibition: 20.8

====

Catalogue of molecules with associated inhibition
- Experimental System: Solute carrier family 2, facilitated glucose transporter member 1 (Homo sapiens)
- Experiment: ST_JUDE_LEISH: Cytotoxicity at 2uM final concentration against transgenic Leishmania Mexicana promastigotes LmGLUT1 that are glucose transport deficient and complemented with the human glucose transporter GLUT1. Activity is measured by DNA content using SYBR green in vitro
- Format: functional
Return type: number; implicit unit %.

Recorded inhibition, per entry:
The reported value for COc1ccc(-c2cc3nc4c(c(NCCCn5ccnc5)n3n2)CCCC4)cc1 in terms of inhibition is 1.31

Entry under test: O=C(Nc1ccc2c(c1)CNCC2)c1ccc(-c2ccc(Cl)cc2)cc1 . Its inhibition was 105

***
For O=C(O)C[C@H](NC(=O)c1cc(-c2ccc3c(c2)OCO3)no1)C(=O)O.O=C(O)C[C@H](NC(=O)c1conc1-c1ccc2c(c1)OCO2)C(=O)O the molecule record lists inhibition as -1.58

So for COc1cc(NCCCNC(=O)c2ccc(Cl)c(Cl)c2)nc2ccccc12 , the logged inhibition turned out to be 5.42

For this molecule ( COc1ccc(NC(=O)c2ccc(Br)c(C)c2)cc1N1CCN(CCCCc2ccccc2)CC1 ), measured inhibition is 1.19

// inhibition value for CN1CCN(c2ccnc3ccc(NC(=O)Nc4ccc5ccccc5c4)cc23)CC1 : 2.79

Sample O=C(NCCCCN1CCC(c2ccc3ccccc3c2O)CC1)c1ccc(-c2ccc(Cl)cc2)cc1 ; inhibition observed: 5.43

For record CC(CN(C)C)C(=O)Nc1ccc(-c2csc(-c3nc4ccccc4[nH]3)c2)cc1 (configuration not stated) the listed inhibition is 0.09

====

Listed next: entries and their corresponding inhibition.
- Experimental System: Glucose transporter (Leishmania mexicana) (UniProt O61059)
- Experiment: ST_JUDE_LEISH: Cytotoxicity at 2uM final concentration against transgenic Leishmania Mexicana promastigotes LmGT2 that are glucose transport deficient and complemented with the L. Mexicana glucose transporter 2. Activity is measured by DNA content using SYBR green in vitro
- Assay type: functional
Just the number please, in %, no unit attached.

Examples from the recorded data:
inhibition reading for N#Cc1ccc(-c2ccc(C(=O)NCCCCN3CCC(c4cc(Br)c5c(c4OCC(N)=O)CCCC5)CC3)cc2)cc1 : -0.04

Notebook: O=C(c1ccc([N+](=O)[O-])o1)N1CCC(c2cn(Cc3cccc(F)c3)c3ccccc23)CC1 , inhibition read as 10.2

Further cases:
molecule COc1ccc2nccc([C@@H](O)CN3CCC(NC(=O)/C=C/c4ccc(F)c5ccccc45)CC3)c2c1 , inhibition observed: 5.26

Lab note: measured inhibition of COc1cc(Nc2ccnc3cc(-c4nccs4)ccc23)ccc1OCCCc1nc2ccccc2[nH]1 was 4.89

What the record says about COc1cc(C(F)(F)F)nc2c(CNCCCNc3cc(=O)c4ccccc4[nH]3)scc12 : inhibition is 0.55
